study system: HLA-A*0201 (human, UniProt A*02:01)
assay name: REVEAL MHC binding assay (ProImmune)
metric name: % Pass/fail control

Solved entries:
                                     binder                  data_value
0  VLFHNLPSL [Peptide ID 49 VLFHNLPSL (CD53)]  216 % of pass/fail control
1  SLFAAISGM [Peptide ID 124 SLFAAISGM (CD20)]  203 % of pass/fail control
2  CMAGARVQV [Peptide ID 117 CMAGARVQV (CD50)]  158 % of pass/fail control
3  LVAPRFLEV [Peptide ID 85 LVAPRFLEV (CD50)]  340 % of pass/fail control
4  LLSGFFFFA [Peptide ID 29 LLSGFFFFA (CD11a)]  210 % of pass/fail control

Report % Pass/fail control for every entry below.
1. YLRPGQAAV (Modified peptide) [Peptide ID 144 YLRPGQAAV (CD18, modified peptide)]
2. VLLRWEEEL [Peptide ID 89 VLLRWEEEL (CD50)]
3. VMNGTDPEL [Peptide ID 120 VMNGTDPEL (CD2)]
4. GLADVAVGA [Peptide ID 64 GLADVAVGA (CD11a)]
5. VLTPAQLNV [Peptide ID 44 VLTPAQLNV (MPO)]

stdout:
["227 % of pass/fail control", "184 % of pass/fail control", "200 % of pass/fail control", "206 % of pass/fail control", "175 % of pass/fail control"]

Provenance of the data: patent US20110142842A1
